Test system: MDAMB157
Test: -log10 GI50 (growth inhibition 50%) (-log10(M)); higher = more potent growth inhibition

structure_string | measurement_target | inequality_operator | -log10 GI50
CC(=O)O[C@H]1C(=O)[C@@]2(C)[C@H]([C@H](OC(=O)c3ccccc3)[C@]3(O)C[C@H](OC(=O)[C@H](O)[C@@H](NC(=O)c4ccccc4)c4ccccc4)C(C)=C1C3(C)C)[C@]1(OC(C)=O)CO[C@@H]1C[C@@H]2O | MDAMB157 | = | 8.27
NS(=O)(=O)c1ccc(Nc2nc(OCC3CCCCC3)c3[nH]cnc3n2)cc1 | MDAMB157 | = | 4.26
O=C1C(Cl)=C(NCCN2CCOCC2)C(=O)c2ncccc21 | MDAMB157 | = | 5.87
O=c1cc(-c2ccccc2)oc2cc(O)c(O)c(O)c12 | MDAMB157 | = | 4.28
Nc1nc2[nH]cc(CCc3ccc(C(=O)N[C@@H](CCC(=O)O)C(=O)O)cc3)c2c(=O)[nH]1 | MDAMB157 | < | 2.53
CC[C@H](CO)Nc1nc(NCc2ccccc2O)c2ncn(C(C)C)c2n1 | MDAMB157 | = | 5.23
CCNCCCNC/C=C\CNCCCNCC | MDAMB157 | = | 2.96
CC(/C=C/C(=O)NO)=C\[C@@H](C)C(=O)c1ccc(N(C)C)cc1 | MDAMB157 | = | 4.68
